Numbers sourced from patent US9730914B2.

biological target: kinase domain protein of RC kinase (RCK) (Homo sapiens)
Sequence (Q56UN5 1061-1324 limits assumed): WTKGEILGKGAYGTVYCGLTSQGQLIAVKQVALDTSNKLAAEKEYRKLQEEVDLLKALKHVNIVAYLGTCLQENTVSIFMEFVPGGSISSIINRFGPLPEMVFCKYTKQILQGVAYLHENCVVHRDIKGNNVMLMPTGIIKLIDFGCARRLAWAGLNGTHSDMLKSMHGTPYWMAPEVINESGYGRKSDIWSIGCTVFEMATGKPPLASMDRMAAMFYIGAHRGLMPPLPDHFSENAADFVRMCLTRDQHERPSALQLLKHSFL
parameter.measured: Kd

1. NC(=O)c1c(Nc2ccc(N3CCCCC3)cc2)n[nH]c1NCc1ccc(O)cc1 [reference compound] ... < 50 nM
2. NC(=O)c1c(Nc2ccc(N3CCC(F)CC3)cc2)n[nH]c1NCc1ccc(O)cc1 [reference compound] ... < 50 nM
3. CC(=O)Nc1cccc(Nc2n[nH]c(NCc3cc(C)c(O)c(C)c3)c2C(N)=O)c1 [Compound 40] ... > 1000 nM
4. CN1CCN(c2ccc(Nc3n[nH]c(NCc4ccc(O)cc4)c3C(N)=O)cc2Cl)CC1 [reference compound] ... < 50 nM
